- TEST_TARGET: mixture of three Der p 2 specific recombinant human IgE clones H10, H12, P4E (human) (UniProt P01854)
- Sequence (P01854 other isoform, or with tags, fused parts or gaps): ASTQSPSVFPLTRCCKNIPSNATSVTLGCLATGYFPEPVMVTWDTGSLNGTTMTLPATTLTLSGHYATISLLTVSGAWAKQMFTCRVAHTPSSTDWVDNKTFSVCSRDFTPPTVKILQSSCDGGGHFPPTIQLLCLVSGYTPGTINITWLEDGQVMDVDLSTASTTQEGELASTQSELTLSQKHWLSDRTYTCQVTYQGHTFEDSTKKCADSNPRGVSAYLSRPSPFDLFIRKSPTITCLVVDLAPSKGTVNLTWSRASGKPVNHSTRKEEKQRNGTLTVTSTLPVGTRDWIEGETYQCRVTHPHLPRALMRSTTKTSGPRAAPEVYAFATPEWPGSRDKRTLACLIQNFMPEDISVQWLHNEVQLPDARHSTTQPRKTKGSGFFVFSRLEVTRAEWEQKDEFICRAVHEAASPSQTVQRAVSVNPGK
- PROTOCOL_NOTES: RBL-SX38 IgE displacement, FACS
MEASURED_ATTRIBUTE: Max effect/effect 1 µM (%)
Entry rule: numbers only, all in %.

Query :: Value lookup for Max effect/effect 1 µM; key = B3A1(G4S)4 (bispecific antibody) DVQLQESGGGLVQAGGSLRLSCAASGFIFRLAGMSWVRQAPGKGFEWVSGITMDGSTTNYADSVKGRFTISRDNSKNRLYLQMNSLKPEDTAVYYCARGAKGGYNDPRGQGTQVTVSGGGGSGGGGSGGGGSGGGGSEVQLLESGGGLVQPGGSLRLSCAASGFTFGNYDMAWVRQAPGKRPEWVSSIDTGGDITHYADSVKGRFTISRDNAKNTLYLQMNSLRPEDTAVYWCATDEEYALGPNEFDYYGQGTLVTVS
Result :: 100

Query :: Quick one: Max effect/effect 1 µM of sdAb B1 (VHH) VHH: QVQLQESGGGLVQTGGSLRLSCAVHGRTFSNTGMGWFRQAPGNERQFVAIISPSGTSTYYADSVKGRFTISRDPAKNTVYLQMNSLKMDDTAVYYCAASYGSNWSTLRHQRRNEYDAWGQGTQVAVS ?
Result :: 54

Query :: Look at this binder and give its reported Max effect/effect 1 µM. A1B3(G4S)4 (bispecific antibody) EVQLLESGGGLVQPGGSLRLSCAASGFTFGNYDMAWVRQAPGKRPEWVSSIDTGGDITHYADSVKGRFTISRDNAKNTLYLQMNSLRPEDTAVYWCATDEEYALGPNEFDYYGQGTLVTVSGGGGSGGGGSGGGGSGGGGSDVQLQESGGGLVQAGGSLRLSCAASGFIFRLAGMSWVRQAPGKGFEWVSGITMDGSTTNYADSVKGRFTISRDNSKNRLYLQMNSLKPEDTAVYYCARGAKGGYNDPRGQGTQVTVS
Result :: 99

Query :: Dear colleague, I am looking for the recorded Max effect/effect 1 µM of the following binder: sdAb F4 (VHH) VHH: DVQLQESGGGLVQAGGSLRLSCAVSGLSFSSMGWFRQPPGKEREFVAAISLYSGSTYYADSVKGRFTISSDNAKSTVYLQMNSLKPEDAAVYFCAADRQRTWSTFYASRQATYNYWGQGTQVTVTS
Result :: 17

Query :: Find the recorded Max effect/effect 1 µM belonging to B1A1(G4S)4 (bispecific antibody) QVQLQESGGGLVQTGGSLRLSCAVHGRTFSNTGMGWFRQAPGNERQFVAIISPSGTSTYYADSVKGRFTISRDPAKNTVYLQMNSLKMDDTAVYYCAASYGSNWSTLRHQRRNEYDAWGQGTQVAVSGGGGSGGGGSGGGGSGGGGSEVQLLESGGGLVQPGGSLRLSCAASGFTFGNYDMAWVRQAPGKRPEWVSSIDTGGDITHYADSVKGRFTISRDNAKNTLYLQMNSLRPEDTAVYWCATDEEYALGPNEFDYYGQGTLVTVS and report it.
Result :: 100

Query :: Return reported Max effect/effect 1 µM; argument: sdAb E1 (VHH) VHH: DVQLQESGGGLVQAGGSLRLSCLASGRTFTTTSGYNMGWFRQAPGKEREFVAGIKWVSGSNRAYAESVKGRFTISRDNAKNTVYLQMNSLKPEDTAVYYCAAATGQSYVPIREYEYVYWGQGTQVTVS
Result :: 0

Numbers sourced from patent US20250171562A1.
